Hello, the source for this data is PubChem BioAssay (NCI), in case you need it.

# ASSAY TEXT: NCI Yeast Anticancer Drug Screen. Data for the mlh1 rad18 strain (AID 175)
# EXPERIMENTAL CONDITIONS: S. cerevisiae mlh1 rad18 strain growth inhibition; at 50.0 µM; active compounds read high
The panel holds about 79,000 compounds, 15% with a hit somewhere; the sample as a whole holds those more often.
growth inhibition values by entry

MOLECULE	UNIT ANNOTATION	growth inhibition
O=C(Nc1cc(Cl)c(Cl)cc1Cl)C(=O)C1C(=O)NC(=S)NC1=O	%	-22.4
O=[As](O)(O)c1ccc(N=Nc2ccc([As](=O)(O)O)cc2)cc1	%	-16.6
CCOP(=O)(OCC)/C(C#N)=C/c1ccco1	%	-21.8
O=C(O)CCc1ccc(NP(=O)(Oc2ccccc2)N(CCCl)CCCl)cc1 (centres undefined)	%	-20.2
O=C(CBr)OCCCS(=O)(=O)O	%	-33.8
CCc1cc[c]([Sb](=[O])([OH])[OH])cc1	%	3.2
c1ccc(CN2C3c4ccccc4C2c2ccccc23)cc1	%	3
Clc1ccc(C2CC3CCCCN3O2)cc1 (centres undefined)	%	5.45
N#CCCCCN=[N+]=[N-]	%	-8.35
